Attribution: paper PMC5842622

systemName: T1, rEhTBP (TATA-box binding protein) (Entamoeba histolytica, UniProt P52653 1-234)
T1 sequence: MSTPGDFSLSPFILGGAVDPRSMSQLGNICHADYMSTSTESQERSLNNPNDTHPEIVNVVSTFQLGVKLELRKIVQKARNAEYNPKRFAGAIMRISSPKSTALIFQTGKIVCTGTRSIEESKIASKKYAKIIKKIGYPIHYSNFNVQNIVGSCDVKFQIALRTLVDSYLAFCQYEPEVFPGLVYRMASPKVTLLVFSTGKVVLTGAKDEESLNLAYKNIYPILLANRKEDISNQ
assayNotes: EMSA; 4 C, 1 mM MgCl2; EMSA: 12 mM Hepes pH 7.9, 60 mM KCl, 1 mM each DTT, EDTA, spermidine and MgCl2, 10% glycerol, poly(dG-dC) 1 ug/ul, 10 min at 4 C; probe 557 pM (TATA), 64 pM (GAAC) or 82 pM (GAAC-like)
testSettings: protein: recombinant; tags: His tag; label: 5'-32P; blunt
pKd: −log10 of the molar value.

# binder, pKd
rows = [
    ("cAcTcAAA (8) (dsDNA) DNA 1: AATTCTCCACTCAAAGAGAATT DNA 2: AATTCTCTTTGAGTGGAGAATT", 10.42),
    ("TATgTAAA (5) (dsDNA) DNA 1: AATTCTCTATGTAAAGAGAATT DNA 2: AATTCTCTTTACATAGAGAATT", 11.77),
    ("gAgTTAAA (6) (dsDNA) DNA 1: AATTCTCGAGTTAAAGAGAATT DNA 2: AATTCTCTTTAACTCGAGAATT", 11.33),
    ("TATTTAAA (1) (dsDNA) DNA 1: AATTCTCTATTTAAAGAGAATT DNA 2: AATTCTCTTTAAATAGAGAATT", 10.68),
    ("TATTTttt (10) (dsDNA) DNA 1: AATTCTCTATTTTTTGAGAATT DNA 2: AATTCTCAAAAAATAGAGAATT", 11.47),
    ("TATTggAA (3) (dsDNA) DNA 1: AATTCTCTATTGGAAGAGAATT DNA 2: AATTCTCTTCCAATAGAGAATT", 10.45),
]
